B1: tRNA (parent)
chain: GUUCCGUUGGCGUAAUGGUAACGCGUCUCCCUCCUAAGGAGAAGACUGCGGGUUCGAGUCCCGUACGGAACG

- Variants of: B1
- Experimental Protocol: yeast fitness relative to wild type (ratio to wild type); higher = fitter; tRNA-Arg(CCU), competitive growth, 37 C, YPD
This sample holds only a part of the variants without activity.
Measure Name: yeast fitness
Give only the figure.

Req: Tell me the measured yeast fitness of GUGCCGUUGGCGUGAUGGUAACGCGUCUCCCUCCUAAGGAGAAGACUGCGGGUUCGAGUCCAGUACGGAACG [U3G A14G C62A] , please.
Resp: 0.603

Req: Tell me the measured yeast fitness of GUUCCGUUGGCGUAAUGGUAACGCGUCUCCCUCCUAAGGAGAAGACUACAGGUUCGAGUCCCGUACGGAACG [G48A G50A] , please.
Resp: 0.973

Req: Tell me the measured yeast fitness of GUUCCGUUGGCGUAAUGGUAACGCGUCUCCCUCCUAAGGAAAAGACUGCGGGUUCGAGUCCCCUACGGAACG [G41A G63C] , please.
Resp: 0.715

Req: Tell me the measured yeast fitness of GUUCCGUUGGUGUAAUGGUAACGGGUCUCCCUCCUAAGGAGAAGACUGCGGGUUCGAGUCCCGUACGGAGCG [C11U C24G A70G] , please.
Resp: 0.649

Req: Tell me the measured yeast fitness of GUUCCGUUGGCGUAAUGGUAACGCGUCUCCCGCCAAACGAGAAGACUGCGCGUUCGAGUCCCGUAUGGAACG [U32G U35A G38C G51C C66U] , please.
Resp: 0.579
